Catalogue of log10 of kon values
- target system: T1, human pro-myostatin (human, UniProt O14793 24-375, biotinylated (in the SPR assay))
- T1 construct: Disulfide-linked homodimer; also called proGDF8 (human)
- experiment summary: SPR Biacore 8K, biotin-antigen captured
Note the log scale: values are log10 of kon expressed in M⁻¹ s⁻¹.

A selection of reference data follows.
| binder | readout value |
| --- | --- |
| Ab107 (antibody, human IgG4 S228P, kappa, V domains shown) VH: EVQLVESGGGLVQPGGSLRLSCAASGSAFSSYGMSWVRQAPGKGLELVASINSNGGSTYYPDSVKGRFTISRDNAKNSLYLQMNSLRAEDTAVYYCARDQLVRFLEWSHYYGMDVWGQGTTVTVSS VL: DIVMTQSPLSLPVTPGEPASISCRSSQSLLHSSGHNFLHWYLQKPGQSPQLLIYAGSNRPSGVPDRFSGSGSGTDFTLKISRVEAEDVGVYYCAHATQLPHTFGGGTKVEIKR | 6.73 |
| Ab104 (antibody, human IgG4 S228P, kappa, V domains shown) VH: EVQLVESGGGLVQPGGSLRLSCAASGSAFSSYGMSWVRQAPGKGLELVASINSNGGSTYYPDSVKGRFTISRDNAKNSLYLQMNSLRAEDTAVYYCARDLLVKFLSWSHYYGMDVWGQGTTVTVSS VL: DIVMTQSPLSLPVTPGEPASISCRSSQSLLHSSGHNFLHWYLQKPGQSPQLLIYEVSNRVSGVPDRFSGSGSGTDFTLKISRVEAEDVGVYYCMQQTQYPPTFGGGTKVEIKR | 6.58 |
| Ab140 (antibody, human IgG4 S228P, kappa, V domains shown) VH: EVQLVESGGGLVQPGGSLRLSCAASGFTFSSYGMSWVRQAPGKGLELVASFTGSGGTYYPDSVKGRFTISRDNAKNSLYLQMNSLRAEDTAVYYCARDNLIRFLEWSHYYGMDVWGQGTTVTVSS VL: DIVMTQSPLSLPVTPGEPASISCRSSQSLLHSSGHNFLHWYLQKPGQSPQLLIYEVSNRESGVPDRFSGSGSGTDFTLKISRVEAEDVGVYYCQQQTQYPPTFGGGTKVEIKR | 6.81 |

Q: log10 of kon for Ab115 (antibody, human IgG4 S228P, kappa, V domains shown) VH: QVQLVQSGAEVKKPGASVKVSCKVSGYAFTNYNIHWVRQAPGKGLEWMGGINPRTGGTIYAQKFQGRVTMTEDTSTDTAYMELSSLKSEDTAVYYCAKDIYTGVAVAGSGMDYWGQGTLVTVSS VL: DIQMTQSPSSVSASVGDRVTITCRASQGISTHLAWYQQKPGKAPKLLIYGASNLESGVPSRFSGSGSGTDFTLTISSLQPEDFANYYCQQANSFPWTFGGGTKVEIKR ?
A: 5.61

Q: // log10 of kon lookup, key: Ab129 (antibody, human IgG4 S228P, kappa, V domains shown) VH: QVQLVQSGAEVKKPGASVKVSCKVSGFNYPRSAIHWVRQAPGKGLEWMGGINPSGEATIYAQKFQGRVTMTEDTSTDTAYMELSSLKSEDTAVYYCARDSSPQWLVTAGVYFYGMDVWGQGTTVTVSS VL: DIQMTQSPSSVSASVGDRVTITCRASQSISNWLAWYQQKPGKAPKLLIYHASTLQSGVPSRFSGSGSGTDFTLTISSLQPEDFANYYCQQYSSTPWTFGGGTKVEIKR
A: 5.15
